test system: Dihydrofolate reductase (Enterococcus faecium)
Classification field: enter satisfied for Delta G values not below -9 kcal, not satisfied for values below it.

compound: CCOC(=O)c1ccc(CNc2ccc3nc(N)nc(O)c3c2)cc1
class.name: satisfied
--
compound: CCOC(=O)c1ccc(NCc2ccc3nc(N)nc(N)c3c2C)cc1
class.name: not satisfied
--
compound: Nc1nc(S)c2cc(Sc3ccc4ccccc4c3)ccc2n1
class.name: not satisfied
--
compound: CCCCOC(=O)c1ccc(NCc2ccc3nc(N)nc(N)c3c2C)cc1
class.name: not satisfied
--
compound: Nc1ncnc2ccc([S+]([O-])c3ccc4ccccc4c3)cc12 (stereo not drawn)
class.name: satisfied
--
compound: CCOC(=O)c1ccc(CNc2ccc3nc(N)nc(O)c3c2Cl)cc1
class.name: not satisfied
--
compound: Cc1c(CNc2ccc(C(=O)NC(CC(=O)O)C(=O)O)cc2)ccc2nc(N)nc(N)c12 (stereo not drawn)
class.name: not satisfied
--
compound: CCCCOC(=O)c1ccc(NCc2ccc3nc(N)nc(N)c3c2Cl)cc1
class.name: not satisfied
--
compound: Nc1nc(N)c2cc(S(=O)(=O)c3ccc4ccccc4c3)ccc2n1
class.name: not satisfied
--
compound: O=c1[nH]c(=O)c2cc(Sc3ccc4ccccc4c3)ccc2[nH]1
class.name: satisfied
--
compound: Nc1nc(O)c2c(Sc3ccc4ccccc4c3)cccc2n1
class.name: satisfied
--
compound: Oc1nc(S)nc2ccc(Sc3ccc4ccccc4c3)cc12
class.name: satisfied
--
compound: Nc1nc(N)c2c(S(=O)(=O)c3ccc4ccccc4c3)cccc2n1
class.name: satisfied
--
compound: Nc1nc(N)c2c(Cl)c(CNc3ccc(C(=O)O)cc3)ccc2n1
class.name: not satisfied
--
compound: CCOC(=O)c1ccc(CNc2ccc3nc(N)nc(O)c3c2C)cc1
class.name: satisfied
--
compound: Nc1nc(O)c2cc(Sc3ccc4ccccc4c3)ccc2n1
class.name: not satisfied
--
compound: Nc1nc(S)nc2ccc(Sc3ccc4ccccc4c3)cc12
class.name: satisfied
--
compound: Nc1nc(N)c2cc(CNc3ccc(C(=O)O)cc3)ccc2n1
class.name: not satisfied
--
compound: CCOC(=O)c1ccc(NCc2ccc3nc(N)nc(N)c3c2Cl)cc1
class.name: not satisfied
--
compound: CCOC(=O)c1ccc(NCc2ccc3nc(N)nc(N)c3c2)cc1
class.name: not satisfied
--
compound: Nc1nc(N)c2c([S+]([O-])c3ccc4ccccc4c3)cccc2n1 (stereo not drawn)
class.name: satisfied
--
compound: CCOC(=O)c1ccc(CNc2ccc3nc(N)nc(N)c3c2C)cc1
class.name: not satisfied
